# Tested on: Bacillus subtilis
# measurementNotes: cleaved RNA product abundance (RNA/gDNA barcode ratio) relative to median wild-type variant (ratio to wild type); higher = more accumulation of the downstream cleavage product
# settings: experiment (reporter, strain, medium): exp 4a: truncated aprE reporter, strain BJT201 with 2% xylose (RNase J1 expressed); cleavage site: cggR-gapA (positions -7 to +36 mutated)
Listed here are sequences together with their documented cleaved RNA product abundance.
Please respond with just the number, no unit label.

Take a look at these entries with their results.
[
  {
    "itemSequence": "ACAGACGAAGGAGCCGCAAAGAAGTTAATAAGAGATGAATAATCCCTCAATATAAATATCTCTCACTTATTTAAA",
    "targetEntity": "Bacillus subtilis",
    "testValue": 0.133
  },
  {
    "itemSequence": "ACAGACGAAGGAGCCGCAAAGAAGTTATTAAAGGACGAATAATCCCTCAATATAAATATCTCTCACTTATTTAAA",
    "targetEntity": "Bacillus subtilis",
    "testValue": 0.103
  },
  {
    "itemSequence": "ACAGACGAAGGAGCCGCAAAGAAGTTATTAAGGGATGAAAAATCCCTCAATATTAATATCTCTCACTTATTTAAA",
    "targetEntity": "Bacillus subtilis",
    "testValue": 0.157
  }
]

Find the recorded cleaved RNA product abundance belonging to `ACAGACGAAGGAGCCGCAAAGAAGTTATGAAGGGATGAATAATCCCTCAATATAAATATCTCTCACTTATTTAAA` and report it. 0.502

* * *

# Tested on: Bacillus subtilis
# measurementNotes: cleaved RNA product abundance (RNA/gDNA barcode ratio) relative to median wild-type variant (ratio to wild type); higher = more accumulation of the downstream cleavage product
# settings: experiment (reporter, strain, medium): exp 8a: truncated aprE reporter, strain BJT201 with 2% xylose (RNase J1 expressed); cleavage site: glnRA (positions -5 to +31 mutated)
endpointLabel: cleaved RNA product abundance

Entry `CGACATGTCCCGCTTCTTTCATTAATCCGTTAGGAAATGTTTTGCTATATACATTTACCTTTTAAGAGGAGGAAT` has what cleaved RNA product abundance? 0.361

So what does the record say about cleaved RNA product abundance for `CGACATGTCCCGCTTCTTTCATTATTCCGTTAGCAACTTTTTTGCTATATACTTTTACCTTTTAAGAGGAGGAAT` ? 0.558

For the sequence `CGACATGTCCCGCTTCTTTCATTAATCCGTTTGCAACTGTTTTGCTATATACATATACCTTTTAAGAGGAGGAAT` , what cleaved RNA product abundance is on record? 0.478

I have this sequence here, `CGACATGTCCCGCTTCTTTCATTAATCCGTTAGCAACAGTTTTGCTATATACATTTACGTTTTAAGAGGAGGAAT` , and I need its recorded cleaved RNA product abundance. 2.01

Item `CGACATGTCCCGCTTCTTTCATTAATCCTATAGCAACTGTTTTGCTATATACATTTACCTTTTAAGAGGAGGAAT` has what recorded cleaved RNA product abundance? 0.458

Can you look up the measured cleaved RNA product abundance of `CGACATGTCCCGCTTCTTTCATTAACCCGTTACCAACTGTTTTGCTATATACATTTACCTTTTAAGAGGAGGAAT` for me? 0.162

* * *

# System: Bacillus subtilis
# measurementNotes: cleaved RNA product abundance (RNA/gDNA barcode ratio) relative to median wild-type variant (ratio to wild type); higher = more accumulation of the downstream cleavage product
# settings: experiment (reporter, strain, medium): exp 4a: truncated aprE reporter, strain BJT201 with 2% xylose (RNase J1 expressed); cleavage site: cggR-gapA (positions -7 to +36 mutated)
I would appreciate it if you labelled entries condition met when cleaved RNA product abundance is 0.2 or higher, otherwise condition not met.

Past entries and their recorded results:
[
  {
    "itemSequence": "ACAGACGAAGGAGCCGCAAAGAAGTTATTGAGGGATGAATACTCCCTCAATATAAATATCTCTCACTTATTTAAA",
    "labelValue": "condition not met"
  },
  {
    "itemSequence": "ACAGACGAAGGAGCCGCAAAGAAGTTATTAAGGGATGAATAACCCCTCAATATACATATCTCTCACTTATTTAAA",
    "labelValue": "condition met"
  },
  {
    "itemSequence": "ACAGACGAAGGAGCCGCAAAGATGTTATTAAGGGATGAATAATGCCTCAATATAAATATCTCTCACTTATTTAAA",
    "labelValue": "condition not met"
  },
  {
    "itemSequence": "ACAGACGAAGGAGCCGCAAAGAAGCTATTAAGTGATGAATAATCCCTCAATATAAATATCTCTCACTTATTTAAA",
    "labelValue": "condition not met"
  }
]

# bool: cleaved RNA product abundance of `ACAGACGAAGGAGCCGCAAAGAAATTATTAAGGTATGAATAATCCCTCAATATAAATATCTCTCACTTATTTAAA` >= 0.2 condition not met

# bool: cleaved RNA product abundance of `ACAGACGAAGGAGCCGCAAAGAAGTTATTAAGGGATGATAAATCCCTCAATATAAATATCTCTCACTTATTTAAA` >= 0.2 condition met

hey, is cleaved RNA product abundance for this one >= 0.2? `ACAGACGAAGGAGCCGCAAAGAAGTTGTTAAGGGATGAATAATCACTCAATATAAATATCTCTCACTTATTTAAA` condition not met
